From: patent US9611258B2

biological target: EGFR (Homo sapiens)
Sequence (P00533 25-1210): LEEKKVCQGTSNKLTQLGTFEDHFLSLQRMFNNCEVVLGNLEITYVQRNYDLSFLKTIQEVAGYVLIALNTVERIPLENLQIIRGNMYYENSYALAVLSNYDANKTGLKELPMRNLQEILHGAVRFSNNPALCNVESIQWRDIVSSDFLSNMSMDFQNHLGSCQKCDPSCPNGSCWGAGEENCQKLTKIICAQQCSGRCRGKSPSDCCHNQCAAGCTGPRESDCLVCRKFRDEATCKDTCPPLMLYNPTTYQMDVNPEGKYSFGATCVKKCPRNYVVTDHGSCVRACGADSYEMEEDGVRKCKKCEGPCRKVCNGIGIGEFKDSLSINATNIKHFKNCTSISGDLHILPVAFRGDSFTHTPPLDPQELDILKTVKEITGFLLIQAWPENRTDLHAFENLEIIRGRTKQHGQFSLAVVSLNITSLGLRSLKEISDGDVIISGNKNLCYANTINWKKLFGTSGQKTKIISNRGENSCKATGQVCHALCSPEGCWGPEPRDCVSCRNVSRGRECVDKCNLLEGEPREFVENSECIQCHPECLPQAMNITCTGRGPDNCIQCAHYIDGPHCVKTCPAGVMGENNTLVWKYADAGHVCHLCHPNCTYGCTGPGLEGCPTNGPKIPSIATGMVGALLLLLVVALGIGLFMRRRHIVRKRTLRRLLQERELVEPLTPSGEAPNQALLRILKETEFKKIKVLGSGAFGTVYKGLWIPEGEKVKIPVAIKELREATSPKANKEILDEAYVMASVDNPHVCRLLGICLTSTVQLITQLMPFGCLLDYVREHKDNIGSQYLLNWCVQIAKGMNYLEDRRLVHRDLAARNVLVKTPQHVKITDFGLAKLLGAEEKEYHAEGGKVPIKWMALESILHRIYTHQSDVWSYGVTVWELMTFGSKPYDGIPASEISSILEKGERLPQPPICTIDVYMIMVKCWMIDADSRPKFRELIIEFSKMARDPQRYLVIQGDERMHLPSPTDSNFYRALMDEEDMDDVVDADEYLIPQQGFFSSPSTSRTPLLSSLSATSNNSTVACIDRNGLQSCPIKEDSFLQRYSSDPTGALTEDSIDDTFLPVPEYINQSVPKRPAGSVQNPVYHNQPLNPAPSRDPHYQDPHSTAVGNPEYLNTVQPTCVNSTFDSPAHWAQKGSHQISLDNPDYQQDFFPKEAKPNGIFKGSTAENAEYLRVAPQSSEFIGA
pIC50: −log10 of the molar value.
VALUE KIND: pIC50

Lab request: please report pIC50 under test system EGFR (Homo sapiens) for Cc1c(Cc2cccc(N(C)S(=O)(=O)CCCNCCCCCC(=O)N3CCN(c4nc(N5CCOCC5)nc(-n5c(C(F)F)nc6ccccc65)n4)CC3)c2)c(=O)oc2cc(OC(=O)N(C)C)ccc12 [MV3-65A]
< 5.00

====

Below, each entry is listed with its recorded IC50.
biological target: PI3K; assay: PI3K lipid kinase activity, Adapta TR-FRET assay with purified enzyme; conditions: in vitro, purified enzyme; read-out: PI3K inhibition IC50
Report only the number, with the unit nM understood.

Cc1c(Cc2cccc(N(C)S(=O)(=O)CCCNCCCCCC(=O)N3CCN(c4nc(N5CCOCC5)nc(-n5c(C(F)F)nc6ccccc65)n4)CC3)c2)c(=O)oc2cc(OC(=O)N(C)C)ccc12 [MV3-65A] : 370

Give the measured IC50 of FC(F)c1nc2ccccc2n1-c1nc(N2CCNCC2)nc(N2CCOCC2)n1 [MV3-42B] .
100
